Tested on: MT4
ASSAY SUMMARY: Compound was evaluated for the inhibition spread of HIV-1 in MT-4 human T-lymphoid cells infected with IIIB isolate
Assay type: functional
ASSAY SETUP: read-out: ID50 (the source's name)
ATTRIBUTE MEASURED: IC50 (µM)
Respond numerically; units are µM and should not be typed.

COc1ccc(S(=O)(=O)N(CC(C)C)C[C@@H](O)[C@H](Cc2ccccc2)NC(=O)[C@H]2C[C@@]3(CCCO3)CCO2)cc1
9.1

Tell me its IC50 given COc1ccc(S(=O)(=O)N(CC(C)C)C[C@@H](O)[C@H](Cc2ccccc2)NC(=O)[C@@H]2C[C@@]3(CCCO3)CCO2)cc1 as the entry.
2.4

Tell me its IC50 given CCC[C@]1(O)CCO[C@@H](C(=O)N[C@@H](Cc2ccccc2)[C@H](O)CN(CC(C)C)S(=O)(=O)c2ccc(OC)cc2)C1 as the entry.
3.4

Tell me its IC50 given COc1ccc(S(=O)(=O)N(CC(C)C)C[C@@H](O)[C@H](Cc2ccccc2)NC(=O)[C@@H]2C[C@]3(CCCO3)CCO2)cc1 as the entry.
4.5

Tell me its IC50 given CC(C)(C)NC(=O)C1CC2CCCCC2CN1C[C@@H](O)[C@H](Cc1ccccc1)NC(=O)[C@H](CC(N)=O)NC(=O)c1ccc2ccccc2n1 (single isomer, unassigned) as the entry.
18

====

Measured pKi, listed per entry.
STUDY TARGET: Human immunodeficiency virus type 1 protease (Human immunodeficiency virus 1, UniProt Q72874)
In simple prose, pKi is minus the logarithm base ten of a concentration in moles per litre.

The cases that follow already have their pKi on record.
COc1ccc(S(=O)(=O)N(CC(C)C)C[C@@H](O)[C@H](Cc2ccccc2)NC(=O)C2CC3(CCCC3)CCO2)cc1 (some centres undefined)
5.82
COc1ccc(S(=O)(=O)N(CC(C)C)C[C@@H](O)[C@H](Cc2ccccc2)NC(=O)[C@H]2C[C@@]3(CCCO3)CCO2)cc1
6.40
COc1ccc(S(=O)(=O)N(CC(C)C)C[C@@H](O)[C@H](Cc2ccccc2)NC(=O)[C@@H]2C[C@]3(CCCO3)CCO2)cc1
6.82

Tell me its pKi given CCC[C@@]1(O)CCO[C@H](C(=O)N[C@@H](Cc2ccccc2)[C@H](O)CN(CC(C)C)S(=O)(=O)c2ccc(OC)cc2)C1 as the entry.
6.32

Tell me its pKi given CCC[C@]1(O)CCO[C@@H](C(=O)N[C@@H](Cc2ccccc2)[C@H](O)CN(CC(C)C)S(=O)(=O)c2ccc(OC)cc2)C1 as the entry.
6.82

Tell me its pKi given COc1ccc(S(=O)(=O)N(CC(C)C)C[C@@H](O)[C@H](Cc2ccccc2)NC(=O)[C@@H]2C[C@@]3(CCCO3)CCO2)cc1 as the entry.
7.70

====

STUDY TARGET: Human immunodeficiency virus type 1 protease (Human immunodeficiency virus 1, UniProt Q72874)
ATTRIBUTE MEASURED: Ki

CCC[C@@]1(O)CCO[C@@H](C(=O)N[C@@H](Cc2ccccc2)[C@H](O)CN(CC(C)C)S(=O)(=O)c2ccc(OC)cc2)C1
> 1000 nM
COc1ccc(S(=O)(=O)N(CC(C)C)C[C@@H](O)[C@H](Cc2ccccc2)NC(=O)[C@H]2C[C@]3(CCCO3)CCO2)cc1
> 2000 nM

Now consider a different compound.
Tell me its Ki given CCC[C@]1(O)CCO[C@H](C(=O)N[C@@H](Cc2ccccc2)[C@H](O)CN(CC(C)C)S(=O)(=O)c2ccc(OC)cc2)C1 as the entry.
> 1000 nM
